Reported solubility at 24 h values are given for each entry in this list.
# run_description: Solubility in pH 7.4 phosphate buffer
# Assay type: physicochemical
# condition_context: aqueous buffer, thermodynamic from solid, equilibration 24 h at 25° C., HPLC-UV and LC-MSMS
value_type: solubility at 24 h (µM)

| item_smiles | meas_value |
| --- | --- |
| CC(C)N1Cc2cc(-c3cc(C(=O)NC4CCCC4)no3)cc(Cl)c2C1=O | 3.53 |
| Cc1cc(-c2cc(C(=O)N(C)CCO)no2)cc2c1C(=O)N([C@@H](C)C1CC1)C2 | 153 |
| Cc1cc(-c2cc(C(=O)N3CCNCC3)no2)cc2c1C(=O)N([C@@H](C)C1CC1)C2 | 435 |
| CC(C)N1Cc2cc(-c3cc(C(=O)N(C)CCO)no3)cc(Cl)c2C1=O | 54.1 |
| CC(C)N1Cc2cc(-c3cc(C(N)=O)no3)cc(Cl)c2C1=O | 21.4 |
| CNC(=O)c1cc(-c2cc(Cl)c3c(c2)CN([C@@H](C)C2CC2)C3=O)on1 | 6.82 |
| CC(C)N(C)C(=O)c1cc(-c2cc(Cl)c3c(c2)CN([C@@H](C)C2CC2)C3=O)on1 | 4.65 |
| C[C@H](N1Cc2cc(-c3cc(C(=O)N4CCOCC4)no3)cc(Cl)c2C1=O)C(F)(F)F | 9.32 |

---

# system_name: hERG ion channel (Homo sapiens, UniProt Q12809)
# Sequence (Q12809 whole entry): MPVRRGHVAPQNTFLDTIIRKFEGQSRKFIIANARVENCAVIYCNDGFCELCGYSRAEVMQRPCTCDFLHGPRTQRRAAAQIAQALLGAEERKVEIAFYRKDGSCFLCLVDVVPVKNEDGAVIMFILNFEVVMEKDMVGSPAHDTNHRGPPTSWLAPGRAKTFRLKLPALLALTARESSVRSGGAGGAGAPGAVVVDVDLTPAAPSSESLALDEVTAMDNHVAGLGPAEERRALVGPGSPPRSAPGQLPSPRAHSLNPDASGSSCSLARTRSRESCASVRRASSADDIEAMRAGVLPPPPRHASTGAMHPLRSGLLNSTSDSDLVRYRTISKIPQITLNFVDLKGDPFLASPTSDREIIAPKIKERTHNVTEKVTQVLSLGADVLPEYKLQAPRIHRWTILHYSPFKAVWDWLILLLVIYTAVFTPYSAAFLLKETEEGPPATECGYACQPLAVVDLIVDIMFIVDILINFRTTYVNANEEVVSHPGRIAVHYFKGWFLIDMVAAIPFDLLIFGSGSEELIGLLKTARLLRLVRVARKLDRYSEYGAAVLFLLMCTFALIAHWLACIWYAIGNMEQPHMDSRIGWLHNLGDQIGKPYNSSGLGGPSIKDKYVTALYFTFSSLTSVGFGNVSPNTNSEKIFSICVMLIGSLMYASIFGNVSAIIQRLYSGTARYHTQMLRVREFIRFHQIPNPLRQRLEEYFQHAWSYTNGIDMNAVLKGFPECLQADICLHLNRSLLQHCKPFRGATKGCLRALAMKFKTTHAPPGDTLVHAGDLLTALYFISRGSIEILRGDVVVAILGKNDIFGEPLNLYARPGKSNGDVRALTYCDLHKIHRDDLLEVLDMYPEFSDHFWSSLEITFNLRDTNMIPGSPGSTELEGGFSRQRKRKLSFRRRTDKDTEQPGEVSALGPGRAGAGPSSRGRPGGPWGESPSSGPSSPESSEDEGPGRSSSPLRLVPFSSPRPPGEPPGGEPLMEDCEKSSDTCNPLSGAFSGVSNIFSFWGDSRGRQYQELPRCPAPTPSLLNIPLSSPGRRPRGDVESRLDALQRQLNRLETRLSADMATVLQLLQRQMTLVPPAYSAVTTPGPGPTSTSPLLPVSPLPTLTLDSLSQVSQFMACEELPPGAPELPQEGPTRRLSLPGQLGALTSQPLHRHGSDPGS
# run_description: hERG activity (process of Bridgland-Taylor et al.)
Reported IC50 values are given for each entry in this list.

| compound | comparison_operator | IC50, µM |
| --- | --- | --- |
| CC(C)N1Cc2cc(-c3cc(C(=O)NC4CCCC4)no3)cc(Cl)c2C1=O [Example 14] | = | 19 |
| CNC(=O)c1cc(-c2cc(C)c3c(c2)CN([C@@H](C)C2CC2)C3=O)on1 [Example 6] | = | 23 |
| CNC(=O)c1cc(-c2cc(Cl)c3c(c2)CN([C@@H](C)C2CC2)C3=O)on1 [Example 2] | = | 21 |
| C[C@@H](C1CC1)N1Cc2cc(-c3cc(C(=O)N(C)CCO)no3)cc(Cl)c2C1=O [Example 19] | > | 33 |

---

# run_description: Solubility in pH 7.4 phosphate buffer
# Assay type: physicochemical
# condition_context: aqueous buffer, thermodynamic from solid, equilibration 24 h at 25° C., HPLC-UV and LC-MSMS
I would appreciate it if you labelled entries satisfied when solubility at 24 h is 20 µM or higher, otherwise not satisfied.

| molecule | cat |
| --- | --- |
| CC(C)N1Cc2cc(-c3cc(C(=O)N4CCCC4)no3)cc(Cl)c2C1=O [Example 9] | not satisfied |
| CNC(=O)c1cc(-c2cc(C)c3c(c2)CN([C@@H](C)C2CC2)C3=O)on1 [Example 6] | not satisfied |
| C[C@@H](C1CC1)N1Cc2cc(-c3cc(C(=O)N4CCOCC4)no3)cc(Cl)c2C1=O [Example 20] | not satisfied |
| C[C@@H](C1CC1)N1Cc2cc(-c3cc(C(=O)N(C)C)no3)cc(Cl)c2C1=O [Example 1] | satisfied |
| Cc1cc(-c2cc(C(N)=O)no2)cc2c1C(=O)N([C@@H](C)C1CC1)C2 [Example 4] | not satisfied |
| C[C@@H](C1CC1)N1Cc2cc(-c3cc(C(N)=O)no3)cc(Cl)c2C1=O [Example 7] | not satisfied |
| Cc1cc(-c2cc(C(=O)N(C)C)no2)cc2c1C(=O)N([C@@H](C)C1CC1)C2 [Example 8] | satisfied |
| Cc1cc(-c2cc(C(=O)N(C)C)no2)cc2c1C(=O)N(C(C)C)C2 [Example 5] | not satisfied |
| C[C@H](N1Cc2cc(-c3cc(C(=O)N(C)C)no3)cc(Cl)c2C1=O)C(F)(F)F [Example 17] | not satisfied |
| CC(C)N1Cc2cc(-c3cc(C(=O)N4CCOCC4)no3)cc(Cl)c2C1=O [Example 15] | satisfied |
| C[C@@H](C1CC1)N1Cc2cc(-c3cc(C(=O)N(C)CCO)no3)cc(Cl)c2C1=O [Example 19] | satisfied |
| Cc1cc(-c2cc(C(=O)N(C)C)no2)cc2c1C(=O)N([C@@H](C)C(F)(F)F)C2 [Example 11] | not satisfied |
| Cc1cc(-c2cc(C(=O)N(C)C(C)C)no2)cc2c1C(=O)N([C@@H](C)C1CC1)C2 [Example 12] | not satisfied |
